This listing pairs molecules with measured CC50.
Tested on: PANC-1
method_notes: Cytotoxicity against human PANC1 cells after 48 hrs by SRB assay
Format: functional
study_conditions: PANC-1, 48 h, read-out: LC50 (the source's name)

Please review the entries below; each comes with its answer.
- cpd_smiles: "C/C=C1\\NC(=O)[C@H](Cc2ccccc2)NC(=O)[C@@H](C(C)C)NC(=O)[C@@H]([C@H](C)CC)NC(=O)[C@H](NC(=O)[C@H](NC(=O)[C@H](CCCN)NC(=O)[C@H]2CCCN2C(=O)[C@H](NC(=O)[C@@H](NC(=O)[C@H](CCC(=O)O)NC(=O)[C@H](NC(=O)CCCC(C)C)C(C)C)C(C)C)C(C)C)[C@H](C)CC)[C@H](C)OC(=O)[C@H](C(C)C)NC1=O"
  CC50: "1740 nM"
- cpd_smiles: "C/C=C1\\NC(=O)[C@H](Cc2ccccc2)NC(=O)[C@@H](C(C)C)NC(=O)[C@@H]([C@H](C)CC)NC(=O)[C@H](NC(=O)[C@H](NC(=O)[C@H](CCCN)NC(=O)[C@H]2CCCN2C(=O)[C@H](NC(=O)[C@H](NC(=O)[C@@H](NC(=O)[C@H](NC(=O)CCCC(C)C)C(C)C)[C@@H](C)O)C(C)C)C(C)C)[C@H](C)CC)[C@H](C)OC(=O)[C@H](C(C)C)NC1=O"
  CC50: "2530 nM"

For this molecule ( `C/C=C1\NC(=O)[C@H](Cc2ccccc2)NC(=O)[C@@H](C(C)C)NC(=O)[C@@H]([C@H](C)CC)NC(=O)[C@H](NC(=O)[C@H](NC(=O)[C@H](CCCN)NC(=O)[C@H]2CCCN2C(=O)[C@H](NC(=O)[C@@H](NC(=O)[C@@H](NC(=O)[C@H](N)C(C)C)[C@@H](C)O)C(C)C)C(C)C)[C@H](C)CC)[C@H](C)OC(=O)[C@H](C(C)C)NC1=O` ), measured CC50 is 3060 nM

For this molecule ( `C/C=C1\NC(=O)[C@H](Cc2ccccc2)NC(=O)[C@@H](C(C)C)NC(=O)[C@@H]([C@H](C)CC)NC(=O)[C@H](NC(=O)[C@H](NC(=O)[C@H](CCCN)NC(=O)[C@H]2CCCN2C(=O)[C@H](NC(=O)[C@@H](NC(=O)[C@@H](NC(=O)[C@@H](CCCN)NC(=O)CCCC(C)C)[C@@H](C)O)C(C)C)C(C)C)[C@H](C)CC)[C@H](C)OC(=O)[C@H](C(C)C)NC1=O` ), measured CC50 is 1760 nM

For this molecule ( `C/C=C1\NC(=O)[C@H](Cc2ccc(Cl)c(Cl)c2)NC(=O)[C@@H](C(C)C)NC(=O)[C@@H]([C@H](C)CC)NC(=O)[C@H](NC(=O)[C@H](NC(=O)[C@H](CCCN)NC(=O)[C@H]2CCCN2C(=O)[C@H](NC(=O)[C@@H](NC(=O)[C@@H](NC(=O)[C@H](NC(=O)CC[C@@H](C)CC)C(C)C)[C@@H](C)O)C(C)C)C(C)C)[C@H](C)CC)[C@H](C)OC(=O)[C@H](C(C)C)NC1=O` ), measured CC50 is 1810 nM

* * *

Tested on: A549
method_notes: Cytotoxicity against human A549 cells after 48 hrs by SRB assay
Assay type: functional, cell-based
study_conditions: Homo sapiens, A549, 48 h
This listing pairs compounds with measured LC50.
Write down the numeric answer in nM and omit the unit.

Please review the entries below; each comes with its answer.
- cpd_smiles: "C/C=C1\\NC(=O)[C@H](Cc2ccccc2)NC(=O)[C@@H](C(C)C)NC(=O)[C@@H]([C@H](C)CC)NC(=O)[C@H](N)[C@H](C)OC(=O)[C@H](C(C)C)NC1=O"
  tested_target: "A549"
  LC50 / nM: 3580
- cpd_smiles: "C/C=C1\\NC(=O)[C@H](Cc2ccccc2)NC(=O)[C@@H](C(C)C)NC(=O)[C@@H]([C@H](C)CC)NC(=O)[C@H](NC(=O)[C@H](NC(=O)[C@H](CCCN)NC(=O)[C@H]2CCCN2C(=O)[C@H](NC(=O)[C@@H](NC(=O)[C@@H](NC(=O)[C@H](NC(=O)CCCC(C)C)C(C)C)[C@@H](C)O)C(C)C)C(C)C)[C@H](C)CC)[C@@H](C)OC(=O)[C@H](C(C)C)NC1=O"
  tested_target: "A549"
  LC50 / nM: 1920

For this compound ( `C/C=C1\NC(=O)[C@H](Cc2ccccc2)NC(=O)[C@@H](C(C)C)NC(=O)[C@@H]([C@H](C)CC)NC(=O)[C@H](NC(=O)[C@H](NC(=O)[C@H](CCCN)NC(=O)[C@H]2CCCN2C(=O)[C@H](NC(=O)[C@@H](NC(=O)[C@@H](NC(=O)[C@H](NC(=O)Cc2cc(F)cc(F)c2)C(C)C)[C@@H](C)O)C(C)C)C(C)C)[C@H](C)CC)[C@H](C)OC(=O)[C@H](C(C)C)NC1=O` ), measured LC50 is 1120
